- STUDY_SYSTEM: Human 11b-HSD1 (Homo sapiens)
- Sequence (P28845 whole entry): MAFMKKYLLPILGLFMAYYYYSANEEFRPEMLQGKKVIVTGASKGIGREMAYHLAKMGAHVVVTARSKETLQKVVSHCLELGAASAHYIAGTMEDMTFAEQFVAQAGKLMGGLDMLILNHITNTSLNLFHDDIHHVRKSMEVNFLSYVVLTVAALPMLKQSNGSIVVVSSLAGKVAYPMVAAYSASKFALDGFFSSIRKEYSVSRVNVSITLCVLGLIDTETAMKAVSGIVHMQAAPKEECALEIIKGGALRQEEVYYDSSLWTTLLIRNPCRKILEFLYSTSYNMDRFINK
- PROTOCOL_NOTES: Inhibition of cortisone-to-cortisol conversion in CHO-K1 cells over-expressing human 11b-HSD1 (HTRF cortisol assay)
- EXPERIMENTAL_PARAMETERS: CHO-K1 cells over-expressing human 11b-HSD1, 160 nM cortisone, 3 hours, 37° C.
EXPERIMENTAL_ENDPOINT: IC50

Some entries whose results are on file:
| SMILES_REPR | EXPERIMENTAL_ENDPOINT | ENDPOINT_VALUE |
| --- | --- | --- |
| Cc1ccccc1-c1cc(C(=O)N[C@H]2C3CC4CC2C[C@](C(N)=O)(C4)C3)no1 | IC50 | 0.1 to 0.5 µM |
| Cn1cccc1C(=O)N[C@H]1C2CC3CC1C[C@](C(N)=O)(C3)C2 | IC50 | > 0.5 µM |
| NC(=O)[C@]12CC3CC(C1)[C@@H](NC(=O)c1ccc4ccccc4[n+]1[O-])C(C3)C2 | IC50 | > 0.5 µM |
| CCCOc1cccc2ccc(C(=O)N[C@H]3C4CC5CC3C[C@](C(N)=O)(C5)C4)nc12 | IC50 | < 0.1 µM |
| Cc1ccc(C(=O)N[C@H]2C3CC4CC2C[C@](C(N)=O)(C4)C3)s1 | IC50 | < 0.1 µM |

Field: next molecule
// query Request: IC50, test system Human 11b-HSD1 (Homo sapiens), entry NC(=O)[C@]12CC3CC(C1)[C@@H](NC(=O)c1cccc(N4CCc5ccccc5C4)n1)C(C3)C2
// result < 0.1 µM

====

molecules and their reported inhibition at 10 mg/kg
- STUDY_SYSTEM: 11b-HSD1 (Mus musculus)
- Construct: the tissues in abdominal fat and the liver were obtained; from tissue; host or cells: abdominal fat and liver of C57Bl/6 mice
- Sequence (P50172 whole entry): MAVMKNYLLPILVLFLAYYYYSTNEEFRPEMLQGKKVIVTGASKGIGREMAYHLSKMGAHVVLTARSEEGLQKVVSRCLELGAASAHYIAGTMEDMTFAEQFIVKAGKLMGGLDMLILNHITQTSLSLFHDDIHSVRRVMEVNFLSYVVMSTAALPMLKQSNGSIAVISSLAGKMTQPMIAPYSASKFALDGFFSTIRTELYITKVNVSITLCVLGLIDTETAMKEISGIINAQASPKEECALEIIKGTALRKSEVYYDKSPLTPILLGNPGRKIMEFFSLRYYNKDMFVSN
- PROTOCOL_NOTES: Ex vivo PD assay: 11b-HSD1 inhibition in abdominal fat and liver tissue after oral administration to mice
- EXPERIMENTAL_PARAMETERS: mouse C57B1/6, oral, 10 mg/Kg, 2 hr, liver, vs vehicle group; read-out: 11b-HSD1 % inhibition in the liver
The figure you give is taken to be in %; do not add the unit.

Check out these entries, answers already filled in.
| SMILES_REPR | UNIT_OF_MEASUREMENT | inhibition at 10 mg/kg |
| --- | --- | --- |
| NC(=O)[C@]12CC3CC(C1)[C@@H](NC(=O)c1cccc4cccnc14)C(C3)C2 | % | 50 |
| NC(=O)[C@]12CC3CC(C1)[C@@H](NC(=O)c1ccc4ccccc4n1)C(C3)C2 | % | 62 |
| NC(=O)[C@]12CC3CC(C1)[C@@H](NC(=O)c1ccc(-c4ccc(Cl)cc4)o1)C(C3)C2 | % | 68 |
| NC(=O)[C@]12CC3CC(C1)[C@@H](NC(=O)c1ccc(-c4ccccc4)o1)C(C3)C2 | % | 85 |

Now for the molecule whose inhibition at 10 mg/kg we want.
// query Requested read-out: inhibition at 10 mg/kg. Entry: NC(=O)[C@]12CC3CC(C1)[C@@H](NC(=O)c1ccc4ccccc4[n+]1[O-])C(C3)C2
// result 61

====

- STUDY_SYSTEM: UniProt:P28845
- PROTOCOL_NOTES: Inhibition of cortisone-to-cortisol conversion in CHO-K1 cells over-expressing human 11b-HSD1 (HTRF cortisol assay)
- EXPERIMENTAL_PARAMETERS: CHO-K1 cells over-expressing human 11b-HSD1, 160 nM cortisone, 3 hours, 37° C.
pIC50: −log10 of the molar value.
EXPERIMENTAL_ENDPOINT: pIC50

Some solved cases for reference:
| SMILES_REPR | EXPERIMENTAL_ENDPOINT | ENDPOINT_VALUE |
| --- | --- | --- |
| NC(=O)[C@]12CC3CC(C1)[C@@H](NC(=O)c1ccc(-c4ccccc4Cl)o1)C(C3)C2 | pIC50 | > 7.00 |
| Cc1csc(C(=O)N[C@H]2C3CC4CC2C[C@](C(N)=O)(C4)C3)c1 | pIC50 | 6.30 to 7.00 |
| NC(=O)[C@]12CC3CC(C1)[C@@H](NC(=O)c1ccccn1)C(C3)C2 | pIC50 | < 6.30 |
| NC(=O)[C@]12CC3CC(C1)[C@@H](NC(=O)c1ccc(-c4ccc(F)c(F)c4)o1)C(C3)C2 | pIC50 | > 7.00 |

// query Looking for the measured pIC50 of CC(C)Oc1cccc2ccc(C(=O)N[C@H]3C4CC5CC3C[C@](C(N)=O)(C5)C4)nc12 , can you help?
// result > 7.00

// query Fill in the blank: the reported pIC50 of CCCOc1cccc(C(=O)N[C@H]2C3CC4CC2C[C@](C(N)=O)(C4)C3)n1 is ____.
// result > 7.00

// query What does the record list as pIC50 for Cc1cccc(C(=O)N[C@H]2C3CC4CC2C[C@](C(N)=O)(C4)C3)[n+]1[O-] ?
// result 6.30 to 7.00
